conditions: in n-hexane, 288.15 K
quantity name: solubility (mole fraction)

Note down solubility (mole fraction) recorded for Clc1cccnc1Cl
0.029

----------
settings: in ethyl acetate, 288.15 K
quantity name: solubility (mole fraction)
Answer with the value's number alone.

Note down solubility (mole fraction) recorded for Clc1cccnc1Cl
0.223

----------
settings: in methyl acetate, 308.15 K
quantity name: solubility (mole fraction)

Note down solubility (mole fraction) recorded for Clc1cccnc1Cl
0.374

----------
conditions: in n-butyl acetate, 303.15 K
quantity name: solubility (mole fraction)

Note down solubility (mole fraction) recorded for Clc1cccnc1Cl
0.372

----------
details: in n-butanol, 288.15 K
quantity name: solubility (mole fraction)
Answer with the value's number alone.

Note down solubility (mole fraction) recorded for Clc1cccnc1Cl
0.0798

Data provenance: BigSolDB 2.1
